assay: Stability in mouse serum assessed as half-life measured upto 48 hrs by RP-HPLC analysis; assay type: ADME, cell-free
measurement.label: half-life

Supply recorded half-life for NCCCC[C@@H](NC(=O)[C@H](N)Cc1c[nH]c2ccccc12)C(=O)N[C@H](Cc1c[nH]c2ccccc12)C(=O)N[C@H](CCCCN)C(=O)N[C@H](Cc1c[nH]c2ccccc12)C(=O)N[C@@H](CC(N)=O)C(=O)NCC(=O)N[C@H](Cc1c[nH]c2ccccc12)C(=O)N[C@H](CCCCN)C(=O)N[C@H](Cc1c[nH]c2ccccc12)C(=O)N[C@H](CCCCN)C(=O)N[C@H](Cc1c[nH]c2ccccc12)C(N)=O here.
> 48 h
